Known activity at 10 µM of a selection of compounds
Test system: HBV viral production in AD38 cells
Test: Viral load production in AD38 cells by quantitative PCR of the HBV core sequence in supernatant
Format: cell-based
Details: Hepatitis B virus, 144 h; 10 μM compound, 6 days at 37° C., viral load in supernatant compared against DMSO control wells; read-out: AD38 Viral Load (CpAM/DMSO %) at 10 μM

> print(dat)
                                   compound  test.value
1  O=C(NCCc1cncnc1)c1cc2c(cc1F)Sc1ccccc1C(=O)N2 [Compound 1411]         66%
2  O=C(Nc1cccc(-c2cccnc2)c1)c1ccc2c(c1)NC(=O)c1ccccc1S2(=O)=O [Compound 1629]          3%
3  O=C(NCCc1cncnc1)c1ccc2c(c1)NC(=O)c1cc(F)ccc1S2 [Compound 1312]          5%
4  CN(C)S(=O)(=O)c1ccc(CCNC(=O)c2ccc3c(c2)NC(=O)c2ccccc2S3(=O)=O)cc1 [Compound 1619]         12%
5  CN(C)CCCOc1ccc(CCNC(=O)c2ccc3c(c2)NC(=O)c2ccccc2S3)cc1.Cl [Compound 1155]         18%

The recorded activity at 10 µM for entry O=C(Nc1cncc(Cl)c1)c1ccc2c(c1)NC(=O)c1cc(F)ccc1S2 [Compound 1345] equals 115%

The recorded activity at 10 µM for entry O=C(NCc1cccc(O)c1)c1ccc2c(c1)NC(=O)c1ccccc1S2 [Compound 1202] equals 7%

The recorded activity at 10 µM for entry O=C(NCCc1ccc(F)cc1)c1ccc2c(c1)NC(=O)c1ccccc1S2 [Compound 1113] equals 1%

---

System: AD38 cells
Test: Viability of AD38 cells (Promega CellTiter-Glo) at the end of compound treatment
Format: cell-based
Settings: 10 μM compound, 6 days, luminescence normalized against DMSO control wells (controls being 100%)
Label Criterion met for high-side AD38 Viability Normalized Result (CPAM/DMSO %) at 10 μM (at or above 90%) and Criterion not met for low-side AD38 Viability Normalized Result (CPAM/DMSO %) at 10 μM (below it).

Here's what some known entries look like.
> print(dat)
                                   compound           category
1  O=C1Nc2cc(S(=O)(=O)NCc3cncs3)ccc2Sc2ccccc21  Criterion not met
2  O=C(NCCC1CCCCC1)c1ccc2c(c1)NC(=O)c1ccccc1S2      Criterion met
3  O=C(Nc1ccncc1)c1ccc2c(c1)NC(=O)c1cc(F)ccc1S2      Criterion met
4  O=C(NCc1cccnc1)c1ccc2c(c1)NC(=O)c1ccc(F)cc1S2      Criterion met
5  O=C(NCCc1cccnc1)c1ccc2c(c1)NC(=O)c1cccc(F)c1S2  Criterion not met

Item `O=C(Nc1cccc(-c2ccccc2)c1)c1ccc2c(c1)NC(=O)c1ccccc1S2` with AD38 Viability Normalized Result (CPAM/DMSO %) at 10 μM of 90% or above?
Criterion not met

Item `O=C(NCCc1ccc(-c2cncnc2)cc1)c1ccc2c(c1)NC(=O)c1cc(F)ccc1S2` with AD38 Viability Normalized Result (CPAM/DMSO %) at 10 μM of 90% or above?
Criterion met

Item `CCOc1ccc(CCNC(=O)c2ccc3c(c2)NC(=O)c2ccccc2S3)cc1` with AD38 Viability Normalized Result (CPAM/DMSO %) at 10 μM of 90% or above?
Criterion met

Item `CS(=O)(=O)c1ccc(CCNC(=O)c2ccc3c(c2)NC(=O)c2ccccc2S3)cc1` with AD38 Viability Normalized Result (CPAM/DMSO %) at 10 μM of 90% or above?
Criterion not met

Item `Cc1c(C(=O)NCCc2cncs2)ccc2c1NC(=O)c1ccccc1S2` with AD38 Viability Normalized Result (CPAM/DMSO %) at 10 μM of 90% or above?
Criterion met

Item `O=C(NCCOc1ccc(F)cc1)c1ccc2c(c1)NC(=O)c1ccccc1S2` with AD38 Viability Normalized Result (CPAM/DMSO %) at 10 μM of 90% or above?
Criterion met

Item `COC(=O)c1cccc(-c2cccc(NC(=O)c3ccc4c(c3)NC(=O)c3cc(F)ccc3S4)c2)c1` with AD38 Viability Normalized Result (CPAM/DMSO %) at 10 μM of 90% or above?
Criterion met

Item O=C(NCCc1ccccn1)c1ccc2c(c1)NC(=O)c1ccccc1[S+]2[O-] (centres unmarked) with AD38 Viability Normalized Result (CPAM/DMSO %) at 10 μM of 90% or above?
Criterion met

Item `O=C(NCc1cncnc1)c1cc2c(cc1F)Sc1ccccc1C(=O)N2` with AD38 Viability Normalized Result (CPAM/DMSO %) at 10 μM of 90% or above?
Criterion met

Item `COc1ccc(CNC(=O)c2ccc3c(c2)NC(=O)c2ccccc2S3)cc1` with AD38 Viability Normalized Result (CPAM/DMSO %) at 10 μM of 90% or above?
Criterion met

---

Test system: AD38 cells
Assay: Viability of AD38 cells (Promega CellTiter-Glo) at the end of compound treatment
Type: cell-based
Conditions: 10 μM compound, 6 days, luminescence normalized against DMSO control wells (controls being 100%)
Protocol: Example 56: Assay Measuring Activity of Compounds on Viral Production in and on Viability of AD38 Cells AD38 cells were then re-suspended with 10 mL of Treatment Medium and counted. […] At the end of compound treatment period cell viability was assessed using a Promega CellTiter-Glo protocol. […]
Known AD38 Viability Normalized Result (CPAM/DMSO %) at 10 μM of a selection of compounds
# output: bare number, implied unit %

Take a look at these entries with their results.
> print(dat)
                                   compound  test.value
1  O=C1Nc2cc(S(=O)(=O)Nc3cncnc3)ccc2[S+]([O-])c2ccccc21 (stereo not shown) [Compound 1506]          85
2  O=C(NCc1cnc(-c2ccccc2)s1)c1ccc2c(c1)NC(=O)c1ccccc1S2 [Compound 1590]          96
3  Cc1c(C(=O)NCCc2ccc(S(=O)(=O)N(C)C)cc2)ccc2c1NC(=O)c1ccccc1S2 [Compound 1517]          78

Moving on to another compound below.
The recorded AD38 Viability Normalized Result (CPAM/DMSO %) at 10 μM for entry CN(C)S(=O)(=O)c1ccc(CCNC(=O)c2ccc3c(c2)NC(=O)c2c(F)cccc2S3)cc1 [Compound 1477] equals 16

---

System: AD38 cells
Test: Viability of AD38 cells (Promega CellTiter-Glo) at the end of compound treatment
Type: cell-based
Settings: 10 μM compound, 6 days, luminescence normalized against DMSO control wells (controls being 100%)
Known AD38 Viability Normalized Result (CPAM/DMSO %) at 10 μM of a selection of compounds
# output: bare number, implied unit %

> print(dat)
                                   compound  test.value
1  O=C(NCc1cnco1)c1ccc2c(c1)NC(=O)c1ccccc1S2(=O)=O [Compound 1456]         101
2  O=C(NCCc1cccc(F)c1)c1ccc2c(c1)NC(=O)c1ccccc1S2 [Compound 1130]         101

Moving on to another compound below.
The recorded AD38 Viability Normalized Result (CPAM/DMSO %) at 10 μM for entry O=C(NCc1cccnc1)c1ccc2c(c1)NC(=O)c1ccccc1C2 [Compound 1591] equals 111

---

Tested on: HBV viral production in AD38 cells
Test: Viral load production in AD38 cells by quantitative PCR of the HBV core sequence in supernatant
Format: cell-based
Conditions: Hepatitis B virus, 144 h; 10 μM compound, 6 days at 37° C., viral load in supernatant compared against DMSO control wells; read-out: AD38 Viral Load (CpAM/DMSO %) at 10 μM
Known activity at 10 µM of a selection of molecules
# output: bare number, implied unit %

Take a look at these entries with their results.
> print(dat)
                                   molecule   observation.type  test.value
1  CN(C)S(=O)(=O)c1ccc(CCNC(=O)c2ccc3c(c2)NC(=O)c2ccccc2S3)cc1  activity at 10 µM           1
2  O=C(Nc1ccncc1)c1ccc2c(c1)NC(=O)c1ccccc1[S+]2[O-] (centres unmarked)  activity at 10 µM          47
3  O=C1Nc2cc(S(=O)(=O)NCc3ccc(F)cc3)ccc2Sc2ccccc21  activity at 10 µM          27
4  COc1cccc(-c2cccc(NC(=O)c3ccc4c(c3)NC(=O)c3cc(F)ccc3S4)c2)c1  activity at 10 µM          15

The recorded activity at 10 µM for entry `CN1C(=O)c2ccccc2Sc2ccc(C(=O)NCc3cncnc3)cc21` equals 78

The recorded activity at 10 µM for entry O=C(NCCC1CCCO1)c1ccc2c(c1)NC(=O)c1ccccc1S2(=O)=O (centres unmarked) equals 0

The recorded activity at 10 µM for entry `CC(C)(C)c1ccc(CCNC(=O)c2ccc3c(c2)NC(=O)c2ccccc2S3)cc1` equals 1

The recorded activity at 10 µM for entry `Cc1nnc(CCNC(=O)c2ccc3c(c2)NC(=O)c2ccccc2S3)s1` equals 1

The recorded activity at 10 µM for entry `O=C(NCCc1ccccn1)c1ccc2c(c1)NC(=O)c1ccccc1N2Cc1ccccc1` equals 51
